Provenance of the data: paper PMC4404333

Target: PfHT (Plasmodium falciparum, UniProt Q7KWJ5)
Sequence (Q7KWJ5 whole entry): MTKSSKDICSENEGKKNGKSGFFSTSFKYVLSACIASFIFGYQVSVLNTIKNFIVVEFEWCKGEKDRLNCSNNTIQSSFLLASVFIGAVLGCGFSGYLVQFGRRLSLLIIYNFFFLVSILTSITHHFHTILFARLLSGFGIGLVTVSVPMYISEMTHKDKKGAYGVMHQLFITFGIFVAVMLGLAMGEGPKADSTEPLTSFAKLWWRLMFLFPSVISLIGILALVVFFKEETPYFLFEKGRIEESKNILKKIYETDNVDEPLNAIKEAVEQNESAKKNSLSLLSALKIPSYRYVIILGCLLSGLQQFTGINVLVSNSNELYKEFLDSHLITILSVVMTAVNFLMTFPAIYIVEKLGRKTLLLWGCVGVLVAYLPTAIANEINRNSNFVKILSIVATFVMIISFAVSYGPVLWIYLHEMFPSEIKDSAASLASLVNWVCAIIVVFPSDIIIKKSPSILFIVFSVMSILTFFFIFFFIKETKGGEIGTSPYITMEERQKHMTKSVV
Test: Uptake of [3H] D-glucose by L. mexicana Δlmxgt1-3 null mutants expressing PfHT
Type: cell-based
Design: expressed in transfected cells; host or cells: Leishmania mexicana promastigotes, Δlmxgt1-3 hexose transporter null mutant
Conditions: Kic (Ki for binding of inhibitor to free transporter), from plot of Km/Vmax versus [I], linear regression
Procedure: Glucose uptake assays employed logarithmic phase L. mexicana promastigotes of the Δlmxgt1-3 hexose transporter null mutant strain expressing either PfHT or GLUT1 from an episomal expression vector [17]. Parasites (1x10^7) were resuspended in 100 μL phosphate buffered saline, pH 7.4. Prior to uptake, parasites were pre-incubated for 5 min with inhibitor, and uptake was initiated by adding 100 μL of 200 μM [^3H] D-glucose diluted to 4.0 μCi/mL. […]
PARAMETER: pKi
pKi is a log-scale quantity: -log10 of the concentration expressed in molar.

- MOLECULE: "COc1cc(Nc2ccc3cc(S(=O)(=O)N4CCCCC4C)ccc3n2)cc(OC)c1OC (stereo not drawn) [Compound 1]"
  RECORDED_NUMBER: 7.48
- MOLECULE: "CC1CCCCN1S(=O)(=O)c1ccc2nc(Nc3cccc(C#N)c3)ccc2c1 (stereo not drawn) [Compound 13]"
  RECORDED_NUMBER: 6.48

// query Reported pKi, molecule O=C1c2ccc3c4c(ccc(c24)C(=O)N1CCCCO)C(=O)N(CCCCO)C3=O [Compound 7] : ____
// result 7.03

---

Reported IC50 values for a set of molecules
molecular target: PfHT (Plasmodium falciparum, UniProt Q7KWJ5); assay: Uptake of [3H] D-glucose by L. mexicana Δlmxgt1-3 null mutants expressing PfHT; assay type: cell-based; design: expressed in transfected cells; host or cells: Leishmania mexicana promastigotes, Δlmxgt1-3 hexose transporter null mutant
The figure you give is taken to be in nM; do not add the unit.

Look over these answered cases.
- MOLECULE: "CC1CCCCN1S(=O)(=O)c1ccc2nc(Nc3cccc(C#N)c3)ccc2c1 (stereo not drawn) [Compound 13]"
  UNIT_ABBREV: "nM"
  RECORDED_NUMBER: 320
- MOLECULE: "O=C1c2ccc3c4c(ccc(c24)C(=O)N1CCCCO)C(=O)N(CCCCO)C3=O [Compound 7]"
  UNIT_ABBREV: "nM"
  RECORDED_NUMBER: 51

// moving on: another record for IC50
// query Reported IC50, molecule Cc1cc(C)cc(C(=O)Nc2cccc(-c3nc4ccccc4[nH]3)c2)c1 [Compound 18] : ____
// result 16000
